So I've got a bunch of molecules here, and I need their Ca^2+ efflux (relative fluorescence units, RFU = max – min) values.
biological target: GRPR (Homo sapiens, UniProt P30550); construct: generated using GRPR-expressing PC-3 cells; endogenous in cells; host or cells: PC-3 cells; assay: Fluorometric calcium release assay in PC-3 cells; assay type: cell-based; settings: 50 nM ligand
Sequence (P30550 whole entry): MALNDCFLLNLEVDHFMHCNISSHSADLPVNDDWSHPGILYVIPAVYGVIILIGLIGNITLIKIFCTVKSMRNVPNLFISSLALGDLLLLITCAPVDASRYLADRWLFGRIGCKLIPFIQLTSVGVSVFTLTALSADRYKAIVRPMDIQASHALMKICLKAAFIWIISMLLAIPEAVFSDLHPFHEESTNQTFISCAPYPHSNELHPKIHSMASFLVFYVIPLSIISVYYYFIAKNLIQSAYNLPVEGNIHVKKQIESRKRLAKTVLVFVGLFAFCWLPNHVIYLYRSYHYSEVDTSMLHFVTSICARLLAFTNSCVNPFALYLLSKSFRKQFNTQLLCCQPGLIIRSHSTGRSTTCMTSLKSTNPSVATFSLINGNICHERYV
Starred links: 1 amine or outer side, 2 acyl side, 3 side chain; linkers in the order of their positions; H or OH if unused. Non-standard residues stand in square brackets, D forms with d. Residues, ends and D or L forms follow the SMILES beside them. *: point of attachment. DOTA = O=C(O)CN1CCN(CC(=O)O)CCN(CC(=O)*)CCN(CC(=O)O)CC1; NMeH = CN[C@@H](Cc1c[nH]cn1)C(=O)O; X1 = O=C(CN1CCC(N[*:1])CC1)[*:2]; Tle = CC(C)(C)[C@H](N)C(=O)O; Thz = O=C(O)[C@@H]1CSCN1
One number for each entry, in RFUs.

Answered examples (5):
CC(C)C[C@H](NC(=O)[C@H](Cc1c[nH]cn1)N(C)C(=O)CNC(=O)[C@@H](NC(=O)[C@H](C)NC(=O)[C@H](Cc1c[nH]c2ccccc12)NC(=O)[C@H](Cc1c[nH]cn1)NC(=O)[C@@H](Cc1ccccc1)NC(=O)CN1CCC(NC(=O)CN2CCN(CC(=O)O)CCN(CC(=O)O)CCN(CC(=O)O)CC2)CC1)C(C)(C)C)C(=O)N1CSC[C@H]1C(N)=O [Ga-LW01142] ({DOTA}-[X1][dF]HWA[Tle]G[NMeH]L[Thz]-NH2): 559
CC(C)C[C@H](NC(=O)[C@H](Cc1c[nH]cn1)N(C)C(=O)CNC(=O)[C@@H](NC(=O)[C@H](C)NC(=O)[C@H](Cc1c[nH]c2c(F)cccc12)NC(=O)[C@H](CCC(N)=O)NC(=O)[C@@H](Cc1ccccc1)NC(=O)CN1CCC(NC(=O)CN2CCN(CC(=O)O)CCN(CC(=O)O)CCN(CC(=O)O)CC2)CC1)C(C)(C)C)C(=O)N1CSC[C@H]1C(N)=O: 242
CC(C)C[C@H](NC(=O)[C@H](Cc1c[nH]cn1)N(C)C(=O)CNC(=O)[C@@H](NC(=O)[C@H](C)NC(=O)[C@H](Cc1c[nH]c2ccccc12)NC(=O)[C@H](CCC(N)=O)NC(=O)[C@@H](Cc1ccccc1)NC(=O)CN1CCC(NC(=O)CN2CCN(CC(=O)O)CCN(CC(=O)O)CCN(CC(=O)O)CC2)CC1)C(C)(C)C)C(=O)N1CSC[C@H]1C(N)=O: 521
Nc1ncnc2c1ncn2[C@@H]1O[C@H](COP(=O)(O)OP(=O)(O)OP(=O)(O)O)[C@@H](O)[C@H]1O [ATP, reference compound]: 253
CC(C)C[C@H](NC(=O)[C@H](Cc1c[nH]cn1)NC(=O)CNC(=O)[C@@H](NC(=O)[C@H](C)NC(=O)[C@H](Cc1c[nH]c2ccccc12)NC(=O)[C@H](CCC(N)=O)NC(=O)[C@@H](Cc1ccccc1)NC(=O)CN1CCC(NC(=O)CN2CCN(CC(=O)O)CCN(CC(=O)O)CCN(CC(=O)O)CC2)CC1)C(C)(C)C)C(=O)N1CSC[C@H]1C(N)=O: 549

Quick batch: Ca^2+ efflux (relative fluorescence units, RFU = max – min) for everything below.
1. Cc1[nH]c2ccccc2c1C[C@H](NC(=O)[C@H](CCC(N)=O)NC(=O)[C@@H](Cc1ccccc1)NC(=O)CN1CCC(NC(=O)CN2CCN(CC(=O)O)CCN(CC(=O)O)CCN(CC(=O)O)CC2)CC1)C(=O)N[C@@H](C)C(=O)N[C@H](C(=O)NCC(=O)N[C@@H](Cc1c[nH]cn1)C(=O)N[C@@H](CC(C)C)C(=O)N1CSC[C@H]1C(N)=O)C(C)C
2. Cc1ccc2[nH]cc(C[C@H](NC(=O)[C@H](CCC(N)=O)NC(=O)[C@@H](Cc3ccccc3)NC(=O)CN3CCC(NC(=O)CN4CCN(CC(=O)O)CCN(CC(=O)O)CCN(CC(=O)O)CC4)CC3)C(=O)N[C@@H](C)C(=O)N[C@H](C(=O)NCC(=O)N[C@@H](Cc3c[nH]cn3)C(=O)N[C@@H](CC(C)C)C(=O)N3CSC[C@H]3C(N)=O)C(C)C)c2c1

Result ::
1. 197
2. 312
